Recorded values, source the supplement of paper PMC11061612.

- System: A673 (Ewing's Sarcoma)
- TEST DETAILS: combination Emax (second highest fraction inhibited in the dose matrix, 72 h); higher = more inhibition; extreme values may be limits of the assay
Give measured combination Emax for each item. Keep answers brief.
Write the value as a bare number.

Query: Recorded combination Emax of CN(C)CCCOc1ccc(-c2ccc3ncc4c(c3c2)n(C2CCOCC2)c(=O)n4C)cn1 [AZD0156] + O=C(c1cc(Cc2n[nH]c(=O)c3ccccc23)ccc1F)N1CCN(C(=O)C2CC2)CC1 [Olaparib] (first compound max 3 µM, partner max 3 µM) , please.
Result: 0.653

Query: What about this molecule? CC(=O)c1c(C)c2cnc(Nc3ccc(N4CCNCC4)cn3)nc2n(C2CCCC2)c1=O [Palbociclib] + CC1(C)CCC(CN2CCN(c3ccc(C(=O)NS(=O)(=O)c4ccc(NCC5CCOCC5)c([N+](=O)[O-])c4)c(Oc4cnc5[nH]ccc5c4)c3)CC2)=C(c2ccc(Cl)cc2)C1 [Venetoclax] (first compound max 10 µM, 7x7, partner max 1 µM)
Result: 0.136

Query: Next up: C[C@@H](Nc1cc(F)cc(F)c1)c1cc(C(=O)N(C)C)cc2c(=O)cc(N3CCOCC3)oc12 [AZD8186] + CC(=O)c1c(C)c2cnc(Nc3ccc(N4CCNCC4)cn3)nc2n(C2CCCC2)c1=O [Palbociclib] (first compound max 10 µM, 7x7, partner max 10 µM)
Result: 0.479

Query: Another molecule to look at: N#Cc1cnc(Nc2cc(NC[C@H]3CNCCO3)c(C(F)(F)F)cn2)cn1 [SRA737] + O=c1[nH]cc(F)c(=O)[nH]1 [5-Fluorouracil] (first compound max 10 µM, 7x7, partner max 20 µM)
Result: 0.402

====

- System: KMRC-20 (Kidney Carcinoma);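 also: after 72 h of two-drug dosing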
- TEST DETAILS: Bliss excess, mean over the matrix (fraction); higher = more synergy
Assign 1 to entries whose Bliss excess meets or exceeds -0.08; assign 0 to the rest.

Query: # bool: Bliss excess of COc1cccc(OCCCN)c1-c1cc(Nc2cnc(C#N)cn2)n[nH]1 [Prexasertib] + Cc1cc2ncnn2cc1Nc1ncc2c(n1)n(C1CCOCC1)c(=O)n2C [AZD7648] (first compound max 1 µM, 7x7, partner max 10 µM) >= -0.08
Result: 1

Query: What would you report for CS(=O)(=O)CCNCc1ccc(-c2ccc3ncnc(Nc4ccc(OCc5cccc(F)c5)c(Cl)c4)c3c2)o1 [Lapatinib] + C[C@@H](Oc1cc(-c2cnn(C3CCNCC3)c2)cnc1N)c1c(Cl)ccc(F)c1Cl [Crizotinib] (first compound max 10 µM, 7x7, partner max 10 µM) ?
Result: 0

Query: Follow-up entry: NC1(C(=O)N[C@@H](CCO)c2ccc(Cl)cc2)CCN(c2ncnc3[nH]ccc23)CC1 [Capivasertib] + CCN(CCO)CCCOc1ccc2c(Nc3cc(CC(=O)Nc4cccc(F)c4)[nH]n3)ncnc2c1 [AZD2811] (first compound max 10 µM, 7x7, partner max 1 µM)
Result: 1

Query: Param item: Cc1c2c(nn1C)CSCc1cc(n(C)n1)CSc1cc(c3ccccc3c1)OCCCc1c(C(=O)O)n(C)c3c-2c(Cl)ccc13 [AZD5991] + C[C@@H](Nc1cc(F)cc(F)c1)c1cc(C(=O)N(C)C)cc2c(=O)cc(N3CCOCC3)oc12 [AZD8186] (first compound max 1 µM, 7x7, partner max 3 µM)
Result: 1

Query: // same read-out, input: COc1nnc2ccc(N3CCC(c4ccc(OCCN5CCN(C)C(=O)[C@H]5C)cc4)CC3)nn12 [AZD5153] + CCN(CCO)CCCOc1ccc2c(Nc3cc(CC(=O)Nc4cccc(F)c4)[nH]n3)ncnc2c1 [AZD2811] (first compound max 1 µM, 7x7, partner max 1 µM)
Result: 0

Query: How about this molecule: CN(CCO)CC[C@H](CSc1ccccc1)Nc1ccc(S(=O)(=O)NC(=O)c2ccc(N3CCC([C@@H](O)c4ccccc4-c4ccc(Cl)cc4)CC3)cc2)cc1S(=O)(=O)C(F)(F)F [AZD4320] + Cn1cnc2c(F)c(Nc3ccc(Br)cc3Cl)c(C(=O)NOCCO)cc21 [Selumetinib] (first compound max 1 µM, 7x7, partner max 3 µM)
Result: 1
